Tested on: K562
Test: NCI tumour cell line growth inhibition, 48 h
Active and inactive are the calls of the source. Cut-off read from the data, not from the text of the source: active = GI50 up to about 1.1 µM and inactive = higher.
READOUT KIND: GI50

Past entries and their recorded results:
COMPOUND	GI50
O=c1c2ccccc2nc(-c2ccccc2)n1NC(=S)Nc1ccccc1	> 100 µM (inactive)
CCOC(=O)Cn1c(=O)c2nc(SC)sc2n(-c2ccccc2)c1=S	> 100 µM (inactive)
O=C(Cc1ccccc1)NS(=O)(=O)c1ccccc1	> 100 µM (inactive)

Now take the following compound into account.
### Prompt Field request: GI50 | item: CC(C)C(C/C=C1\CC(CO)(COC(=O)c2ccccc2)OC1=O)C(C)C (centres undefined)
### Response 12 µM (inactive)

----------
Tested on: MDA-MB-435
Assay: NCI tumour cell line growth inhibition, 48 h
The source made the active and inactive calls. No stated cut-off is given here; in the data, active = GI50 up to about 1.1 µM and inactive = higher.
READOUT KIND: GI50

COMPOUND	RESULT
COC(=O)[C@H]1C[C@H]1NC(=O)C(CC(=O)OCc1ccccc1)NC(=O)OCc1ccccc1 (stereo partly specified)	35 µM (inactive)
N#Cc1c(-c2ccc(Cl)cc2)cc(-c2nc3ccccc3[nH]2)nc1N	5.43 µM (inactive)
CC(=O)OC12CC[N+]3(C)CCCCC3C1=Nc1ccccc12 (stereo unspecified)	> 100 µM (inactive)
CC(C)CC(C(N)=O)C(=O)NC(Cc1ccccc1)NC(=O)CNC(=O)C(C)NC(=O)C(N)Cc1ccc(O)cc1 (stereo unspecified)	> 100 µM (inactive)
O=C(NCCCCCCCCNC(=O)c1cccc2ccccc12)c1cccc2ccccc12	> 100 µM (inactive)

### Prompt Suppose we examine the compound COc1ccc(/C=C2\N/C(=N/N)N=C2Cl)cc1 ; what GI50 value has been reported?
### Response > 100 µM (inactive)

### Prompt Thanks! And COc1ccc2c(c1)CCCN1CCc3ccccc3C21 (stereo unspecified) ?
### Response 21.7 µM (inactive)

### Prompt CC(=O)C1C(=O)C(=O)N(c2ccc([N+](=O)[O-])cc2)C1=O (stereo unspecified) ?
### Response > 100 µM (inactive)

### Prompt Another compound: CCN(CC)CCNc1n[n+]([O-])c2ccccc2[n+]1[O-]
### Response 22.3 µM (inactive)

### Prompt Follow-up entry: O=CNCCCN1CCN(CCCNC=O)CC1
### Response > 100 µM (inactive)

### Prompt Moving on to CC(=O)c1ccc(NCN2C(=O)c3ccccc3C2=O)cc1
### Response > 100 µM (inactive)

----------
Tested on: MOLT-4
Assay: NCI tumour cell line growth inhibition, 48 h
The source made the active and inactive calls. Cut-off read from the data, not from the text of the source: active = GI50 up to about 1.1 µM and inactive = higher.
READOUT KIND: GI50

Worked examples follow.
COMPOUND	READOUT KIND	RESULT
COc1ccc2ccccc2c1/C=C/C(=O)c1ccccc1	GI50	2.84 µM (inactive)
C=C1C(=O)O[C@H]2C/C(C=O)=C\[C@H]3O[C@H]3/C(COC(=O)C(C)C)=C/CC12 (some centres not stated)	GI50	3.06 µM (inactive)
Cn1c2c(c3ccccc31)CCN(CCCCN1CCN(c3ccccc3)CC1)C2=O	GI50	7.38 µM (inactive)

### Prompt What measured GI50 is associated with Cn1c(=O)n(C2(C)C[Se]C2)c2ccccc21 on MOLT-4?
### Response > 100 µM (inactive)

### Prompt Same question for CSC(=S)Nc1cc(C)ccn1 please.
### Response > 100 µM (inactive)

### Prompt Let us now turn to CC(=O)OC1(C#N)CC2OC1C1C2N=NN1C(=O)OC(C)(C)C (configuration not stated)
### Response 50.1 µM (inactive)

### Prompt Repeat for the following compound: CC(=O)OC12CC[N+]3(C)CCCCC3C1=Nc1ccccc12 (configuration not stated)
### Response > 100 µM (inactive)
